Items are presented alongside their recorded melting point.
assay.metric: melting point

> print(dat)
                                    compound      obs.value
 1   N#Cc1ccc(-c2ccc(-c3nc(N)nc(N)n3)cc2)cc1       > 260 °C
 2  CCCc1nc2c(N)nc3cc(OCc4ccc(F)cc4)ccc3c2n1CC(C)C  198 to 200 °C
 3  Cc1ccc(S(=O)(=O)Nc2ccc(C(N)=O)cc2C(N)=O)cc1  212 to 215 °C
 4            CSc1cc2cnc(-c3ccccc3)n2c(SC)n1  117 to 118 °C
 5  CCCCC(Nc1ccncc1)c1ccccc1 (configuration not stated)         118 °C
 6  CCN1c2ncc(CCc3ccncc3)cc2C(=O)N(C)c2ccc(N)nc21    94 to 97 °C
 7                 Nc1ccccc1OCc1ccc2ccccc2n1    62 to 64 °C
 8         N#Cc1c(N)oc2c(-c3ccccc3)cccc2c1=O  217 to 219 °C
 9  COc1ccccc1[C@H](C)C(=O)N1C[C@@H]2[C@H](F)CCC(c3ccccc3)(c3ccccc3)[C@@H]2C1         195 °C
10  CCCOc1ccc(S(=O)(=O)N2CCN(Cc3ccccc3)CC2)cc1-c1nc2cc(N)c([N+](=O)[O-])cc2c(=O)[nH]1  198 to 200 °C
11               O=CNCc1c(Cl)ccc2cc(Cl)cnc12         110 °C
12  O=S(=O)(Nc1c(Cl)ccc2cc(-c3ncc(CO)s3)[nH]c12)c1cccs1  197 to 199 °C
13            N#Cc1ccc(N2CCOCC2)c(NC(N)=S)c1  193 to 194 °C
14  COC(=O)CCCc1cc2nc(C(F)(F)F)ccc2n1S(=O)(=O)c1ccccc1Cl          88 °C
15  Cc1ccnc(N2CCN(CCC3Cn4c(-c5ccc(O)cc5)c(C)c5cccc(c54)O3)CC2)c1 (configuration not stated)  213 to 214 °C
16                  CCCCNCc1ccc2cc(OC)ccc2c1    55 to 80 °C
17            COc1cccc(S(=O)(=O)NC(C)(C)C)c1         100 °C
18  Cc1ccc(C(=O)c2[nH]c3cc(Cl)ccc3c2CC(=O)O)nc1  235 to 238 °C
19             Cc1cc(-c2oncc2CCC(=O)O)ccc1Cl  158 to 159 °C
20        COC(=O)c1cccc(/C=C/c2cccc(OC)c2)c1    92 to 94 °C
21           CCOC(=O)C=Cc1ccc(OC(C)C)c(OC)c1  103 to 104 °C
22               CCOC(=O)c1cnc2c(O)nccn2c1=O       > 300 °C

* * *

Listed compounds paired with reported melting point
assay.metric: melting point

> print(dat)
                                   compound   assay.metric      obs.value
1  CNS(=O)(=O)CCc1ccc2[nH]cc(CCCN3C(=O)c4ccccc4C3=O)c2c1  melting point  169 to 170 °C
2  CC(C)N(CCC(c1ccccc1)c1cc(Br)ccc1OCc1ccccc1)C(C)C (configuration not stated)  melting point    52 to 56 °C
3     O=c1nc(-c2ccc(C(F)(F)F)cn2)sc2ccccc12  melting point         207 °C
4  NC(=O)C(NC(=O)OCc1ccccc1)c1ccc(CC2CC2)[nH]1 (configuration not stated)  melting point  184 to 185 °C
5  CC(C)(C)c1cc(P(c2ccccc2)c2cc(C(C)(C)C)c(O)c(C(C)(C)C)c2)cc(C(C)(C)C)c1O  melting point  138 to 140 °C
6  CC1(C)CCC(C)(C)c2cc(C(=O)NNC(=O)c3ccc(C#N)cc3)ccc21  melting point  274 to 277 °C
7  Cc1cc(-n2ccnc2)c2cccc(OCc3c(Cl)ccc(S(=O)(=O)N4CCC[C@H]4C(=O)NCCc4ccncc4)c3Cl)c2n1  melting point         120 °C
